Target: S. cerevisiae (yeast) RR (S. cerevisiae)
Ends that are not written are not given here.
IC50, inhibition of Yeast RR activity values for the binders below.
Reply with just the number (in µM).

Identify measured IC50, inhibition of Yeast RR activity associated with Ac-FTLDADF [Ac-(FTLDADF)]
25

Identify measured IC50, inhibition of Yeast RR activity associated with Ac-FTFNEDF [Ac-(FTFNEDF)]
25

Identify measured IC50, inhibition of Yeast RR activity associated with Ac-AGAFTFNEDF [Ac-(…)]
25

Next item in the queue.
Identify measured IC50, inhibition of Yeast RR activity associated with Ac-TFNEDF [Ac-(TFNEDF)]
600
